Recorded measurements of EC50, one per entry
assayedSystem: Ras-related C3 botulinum toxin substrate 1 (Mus musculus)
experimentalProtocol: activated Rac1 mutant nucleotide-binding inhibitors – biochemical, multiplex, GST-Rac1 beads, Bodipy-FL-GTP, flow cytometry, dose response (AID 1339)

compound	EC50, µM
CNC(=S)N/N=C1\C(=O)Nc2ccccc21	91.6
O=C1C([N+](=O)[O-])=Cc2oc3c(c2C1/C=N/Cc1ccccc1)CCCC3 (configuration not stated)	5.79
